- Tested on: CRM1 substrate RanBP1
- Assay details: Nuclear export block (RanBP1 localization, recovery after compound removal)
- Assay type: cell-based
- Condition description: recovery of cytoplasmic RanBP1 localization after compound washout (typically 1 h exposure; 8, 24 or 48 h recovery)
Observed property: Nuclear Export Block

[[record]]
compound = "CNC(=O)OC/C=C(\\C)C[C@H](C)[C@@H](O)[C@H](C)C(=O)[C@H](C)/C=C(C)/C=C/C[C@@H](C)/C=C(C)\\C=C\\[C@H]1CC=CC(=O)O1"
test_result = "Slow recovery"

[[record]]
compound = "CCC(=C/[C@H](C)C/C=C/C(C)=C/[C@@H](C)C(=O)[C@@H](C)[C@H](O)[C@@H](C)C/C(C)=C/C(=O)O)/C=C/[C@@H]1OC(=O)C=C[C@@H]1C [Leptomycin B, reference compound]"
test_result = "Slow recovery"


* * *

Reported values of IC50 for individual entries
- Test system: LS411N
- Assay details: Inhibition of tumor cell proliferation, LS411N
- Format: cell-based
- Condition description: Homo sapiens, LS-411N; exposure time 1 h
Value expressed in nM; do not type the unit.

[[record]]
molecule = "CCC(=C/[C@H](C)C/C=C/C(C)=C/[C@@H](C)C(=O)[C@@H](C)[C@H](O)[C@@H](C)C/C(C)=C/C(=O)NCCc1cccnc1)/C=C/[C@@H]1OC(=O)C=C[C@@H]1C [VI, reference compound]"
test_result = 2.9


Now take the following molecule into account.
Qu. What IC50 value was documented for this molecule, "CC(=C/[C@H](C)C/C=C/C(C)=C/[C@@H](C)C(=O)[C@@H](C)[C@H](OC(N)=O)[C@@H](C)C/C(C)=C/COC(N)=O)/C=C/[C@H]1CC=CC(=O)O1" ?
Ans. 9.4

* * *

- Test system: Caki-1
- Assay details: Inhibition of tumor cell proliferation, Caki-1
- Assay type: cell-based
- Condition description: Homo sapiens, exposure time 1 h
- Protocol: The biological activity of compounds of this invention was evaluated by measuring their inhibitory effect on the proliferation of various tumor cell lines. HCT-116 is a human colon cancer cell line. LNCap is a human prostate cancer cell line. SiHa is an HPV-16 positive human cervical cancer line. Table D presents additional data for the activity of compounds A-1 and A-4 against various cell lines. […]
Observed property: IC50 (nM)
Give a bare numeral; the unit nM is implied.

[[record]]
compound = "CC(=C/[C@H](C)C/C=C/C(C)=C/[C@@H](C)C(=O)[C@@H](C)[C@H](O)[C@@H](C)C/C(C)=C/COC(=O)NCc1ccccc1)/C=C/[C@H]1CC=CC(=O)O1"
unit = "nM"
test_result = 6.6


Now for another entry.
Qu. Sample CCC(=C/[C@H](C)C/C=C/C(C)=C/[C@@H](C)C(=O)[C@@H](C)[C@H](O)[C@@H](C)C/C(C)=C/C(=O)NCCc1cccnc1)/C=C/[C@@H]1OC(=O)C=C[C@@H]1C [VI, reference compound] — what was its IC50?
Ans. 4.5

* * *

- Test system: CAL-27
- Assay details: Inhibition of tumor cell proliferation, CAL-27
- Assay type: cell-based
- Condition description: Homo sapiens, exposure time 1 h
Let's look at some compounds and their measured IC50.
Record the result as a number with its unit.

[[record]]
compound = "CCC(=C/[C@H](C)C/C=C/C(C)=C/[C@@H](C)C(=O)[C@@H](C)[C@H](O)[C@@H](C)C/C(C)=C/C(=O)NCCc1cccnc1)/C=C/[C@@H]1OC(=O)C=C[C@@H]1C [VI, reference compound]"
test_result = "0.7 nM"


Switching to the query record.
Qu. Quick one: IC50 for CC(=C/[C@H](C)C/C=C/C(C)=C/[C@@H](C)C(=O)[C@@H](C)[C@H](OC(N)=O)[C@@H](C)C/C(C)=C/COC(N)=O)/C=C/[C@H]1CC=CC(=O)O1 [Compound A-4] ?
Ans. 2.8 nM
